Value source: paper PMC10916400

Target: CYP2C9 (Homo sapiens, UniProt P11712)
Construct: host or cells: baculovirus-infected insect cells (microsomes)
Sequence (P11712 whole entry): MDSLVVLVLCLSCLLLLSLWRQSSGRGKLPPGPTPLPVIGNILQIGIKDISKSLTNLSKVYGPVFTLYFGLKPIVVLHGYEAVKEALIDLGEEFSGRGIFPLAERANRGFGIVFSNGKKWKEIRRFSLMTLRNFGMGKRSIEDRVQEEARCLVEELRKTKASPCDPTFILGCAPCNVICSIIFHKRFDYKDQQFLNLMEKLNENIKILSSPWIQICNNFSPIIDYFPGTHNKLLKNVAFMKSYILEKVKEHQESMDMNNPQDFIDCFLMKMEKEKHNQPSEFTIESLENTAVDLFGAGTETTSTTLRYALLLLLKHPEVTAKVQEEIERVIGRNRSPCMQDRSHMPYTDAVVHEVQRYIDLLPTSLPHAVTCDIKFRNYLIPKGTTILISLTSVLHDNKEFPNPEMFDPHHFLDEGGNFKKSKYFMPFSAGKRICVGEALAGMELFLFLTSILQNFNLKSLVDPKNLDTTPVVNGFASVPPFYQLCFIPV
Assay: Cytochrome inhibition activity assay
Type: biochemical
Settings: probe 7-methoxy-4-(trifluoromethyl)coumarin, human recombinant enzyme, 37°C
Measured Metric: inhibition at 10 µM

Query :: What inhibition at 10 µM value was documented for this compound, CCN(CC)c1ccc(/C=C/c2cc[n+](CCCCCCCCCC[n+]3ccc(/C=C/c4ccc(N(CC)CC)cc4)c(C)c3)cc2C)cc1 [YAT2150] ?
Result :: ~50%

###

Experiment: Caco-2 permeability assay
Assay type: in vitro ADME
Settings: human, Caco-2; Papp BA/Papp AB
Measured Metric: efflux ratio at 120 min

Query :: Query: efflux ratio at 120 min; subject: CCN(CC)c1ccc(/C=C/c2cc[n+](CCCCCCCCCC[n+]3ccc(/C=C/c4ccc(N(CC)CC)cc4)c(C)c3)cc2C)cc1 [YAT2150]
Result :: 0.48

###

Experiment: in vitro
Type: cell-based
Details: human umbilical vein endothelial cells
Measured Metric: CC50 at 48 h (µM)
Give bare numbers, in µM.

Record CC50 at 48 h for all entries; do not skip any.
1. CC1=CC2Cc3nc4ccccc4c(NCCCCCCCCCCNc4c5c(nc6ccccc46)CCCC5)c3C(C1)C2 (stereo not drawn) [HUPH10TH]
2. CC1=CC2Cc3nc4cc(Cl)ccc4c(NCCCN(C)CCCNc4c5c(nc6ccccc46)CCCC5)c3C(C1)C2 (stereo not drawn)
3. CC1=CC2Cc3nc4cc(Cl)ccc4c(NCCCCCCCNc4c5c(nc6ccccc46)CCCC5)c3C(C1)C2 (stereo not drawn)

Result ::
[3.4, 3.4, 7.8]

###

Tested on: L. infantum promastigotes
Experiment: microbe, parasite or virus in culture
Type: cell-based, Leishmania infantum
Details: L. infantum promastigotes, in vitro
Description: L. infantum (MHOM/ES/2016/CATB101) promastigotes were maintained at 26°C in complete Schneider’s medium (Schneider’s insect medium supplemented with 10% FBS, 25 µg/mL gentamycin, 1% penicillin-streptomycin, and 1% sterile human urine, pH 6.7). For growth inhibition assays, promastigotes were used in the logarithmic growth phase, whereas for the infection of macrophages and generation of amastigotes they were used in the stationary phase. […]
Please provide measured IC50 for the entries that follow.
Answers are plain numbers, in nM.

>>> reported_result("CC1=CC2Cc3nc4ccccc4c(NCCCCCCCCCCNc4c5c(nc6ccccc46)CCCC5)c3C(C1)C2 (stereo not shown) [HUPH10TH]")
720
>>> reported_result("CC1=CC2Cc3nc4cc(Cl)ccc4c(NCCCCCCCNc4c5c(nc6ccccc46)CCCC5)c3C(C1)C2 (stereo not shown)")
1230

Query :: Which IC50 value belongs to CC1=CC2Cc3nc4cc(Cl)ccc4c(NCCCN(C)CCCNc4c5c(nc6ccccc46)CCCC5)c3C(C1)C2 (stereo not shown) ?
Result :: 2370

###

Assay: in vitro
Type: in vitro ADME
Conditions: human, plasma, 37°C, after 6 h, read-out: % remaining, plasma stability
Measured Metric: remaining at 6 h, 5 µM (%)
Give bare numbers, in %.

Query :: Given the compound CCN(CC)c1ccc(/C=C/c2cc[n+](CCCCCCCCCC[n+]3ccc(/C=C/c4ccc(N(CC)CC)cc4)c(C)c3)cc2C)cc1 , what is its reported remaining at 6 h, 5 µM?
Result :: 91

###

Assay: Human microsomal stability assay
Format: in vitro ADME
Settings: human, microsomes, pH 7.4, human microsomes, 37°C, after 1 h
Measured Metric: remaining at 1 h, 1 µM (%)
Give bare numbers, in %.

Query :: Find the recorded remaining at 1 h, 1 µM belonging to CCN(CC)c1ccc(/C=C/c2cc[n+](CCCCCCCCCC[n+]3ccc(/C=C/c4ccc(N(CC)CC)cc4)c(C)c3)cc2C)cc1 and report it.
Result :: 55

###

Target: CYP1A2 (Homo sapiens, UniProt P05177)
Construct: host or cells: baculovirus-infected insect cells (microsomes)
Sequence (P05177 1-516): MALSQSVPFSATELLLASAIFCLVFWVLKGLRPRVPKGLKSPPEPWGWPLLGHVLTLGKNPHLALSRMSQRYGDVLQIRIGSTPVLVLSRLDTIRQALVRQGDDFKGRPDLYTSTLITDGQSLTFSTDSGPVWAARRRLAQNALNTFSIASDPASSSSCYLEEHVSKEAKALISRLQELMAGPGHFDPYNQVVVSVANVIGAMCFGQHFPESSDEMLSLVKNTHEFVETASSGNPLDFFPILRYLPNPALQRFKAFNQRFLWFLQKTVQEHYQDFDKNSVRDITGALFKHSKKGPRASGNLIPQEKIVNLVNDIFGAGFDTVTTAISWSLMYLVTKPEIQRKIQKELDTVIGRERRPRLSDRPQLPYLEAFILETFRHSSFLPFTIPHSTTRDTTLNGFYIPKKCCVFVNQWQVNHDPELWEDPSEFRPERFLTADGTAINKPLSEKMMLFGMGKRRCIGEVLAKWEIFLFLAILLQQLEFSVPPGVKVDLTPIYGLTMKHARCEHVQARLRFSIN
Assay: Cytochrome inhibition activity assay
Type: biochemical
Details: probe 3-cyano-7-ethoxycoumarin, human recombinant enzyme, 37°C
Measured Metric: inhibition at 10 µM

Query :: What does the record list as inhibition at 10 µM for CCN(CC)c1ccc(/C=C/c2cc[n+](CCCCCCCCCC[n+]3ccc(/C=C/c4ccc(N(CC)CC)cc4)c(C)c3)cc2C)cc1 ?
Result :: ~50%
